# experimental system: covalently-crosslinked hexameric CA A14C/E45C/W184A/M185A (CA121) (Human immunodeficiency virus type 1 group M subtype B, UniProt P12493, A146C/E177C/M317A/W316A)
# protocol summary: Thermal shift assay (TSA) on CA hexamer stability
# Format: binding, HIV-1
# test conditions: 20 µM compound, 7.5 µM CA121
TSA ΔTm (change of CA crosslinked hexamer melting temperature vs DMSO) of 6 °C or higher: T. Under 6 °C: F.

# query smiles, qualitative label
measured = [
    ("COc1ccc2[nH]cc(CC(=O)N[C@@H](Cc3ccccc3)c3nccn3-c3ccc(Br)cc3)c2c1", "F"),
    ("Cc1[nH]c2ccccc2c1CC(=O)N[C@@H](Cc1ccccc1)c1nccn1-c1ccc(-c2nnn[nH]2)cc1", "F"),
    ("COc1ccc2[nH]cc(CC(=O)N[C@@H](Cc3ccccc3)c3ncccc3-c3ccc(Cl)cc3)c2c1", "T"),
    ("COc1ccc2[nH]cc(CC(=O)N[C@@H](Cc3ccccc3)c3ncccc3-c3ccc(Br)cc3)c2c1", "T"),
    ("CCn1cc(CC(=O)N[C@@H](Cc2ccccc2)c2ncccc2-c2ccc(Br)cc2)c2ccccc21", "T"),
    ("O=C(Cc1c[nH]c2ccccc12)N[C@@H](Cc1ccccc1)c1ncccc1-c1ccc(Cl)cc1", "T"),
    ("O=C(Cn1cccn1)N[C@H](Cc1ccccc1)c1ncccc1-c1cccc2cn[nH]c12", "F"),
    ("COc1ccc2[nH]cc(CC(=O)N[C@@H](Cc3ccccc3)c3nccn3-c3ccc(I)cc3)c2c1", "F"),
    ("O=C(Cn1ncc2ccccc21)N[C@H](Cc1ccccc1)c1ncccc1-c1cccc2cn[nH]c12", "F"),
    ("Cc1[nH]c2ccccc2c1CC(=O)N[C@@H](Cc1ccccc1)c1nccn1-c1ccc(C#N)cc1", "F"),
    ("O=C(Cc1c[nH]c2ccccc12)N[C@@H](Cc1ccccc1)C(=O)N1CCCc2ccccc21", "F"),
    ("O=C(Cc1c[nH]c2ccccc12)N[C@@H](Cc1ccccc1)C(=O)N1CCc2ccccc21", "F"),
    ("O=C(Cn1ncc2ccccc21)N[C@H](Cc1ccccc1)c1ncccc1-c1ccccc1", "F"),
    ("CCn1cc(CC(=O)N[C@@H](Cc2ccccc2)c2ncccc2-c2ccc(Cl)cc2)c2ccccc21", "T"),
]
